System: SNB-75 CNS
Assay: NCI-60 one-dose screen, 48 h (100 = growth as untreated, 0 = no growth, -100 = all killed)
Details: 10 µM
Compounds without any hit were thinned out: in the full panel of roughly 83,000, 20% have a hit. The source made the active and inactive calls. Rule for the calls: active = growth percent below 10; inactive = the rest.
measurement_kind: growth

A selection of reference data follows.
compound: Cn1c(N)c(N=Cc2ccccc2)c(=O)n(C)c1=O
measurement_kind: growth
result: 91.4% (inactive)

compound: C[C@]12CC[C@H]3[C@@H](CCC4=CC(=O)CC[C@@]43C)[C@@H]1CC[C@@H]2c1csc(N)n1
measurement_kind: growth
result: 92.5% (inactive)

compound: CCOc1nc(-c2ccccc2)cc2c(O)c(C(=O)N/N=C/c3ccc(OC)cc3)[nH]c(=O)c12
measurement_kind: growth
result: 91.7% (inactive)

compound: Oc1ccccc1-c1nnc(Cn2c(Cc3cccc4ccccc34)nc3ccccc32)o1
measurement_kind: growth
result: 88.8% (inactive)

compound: O=c1[nH]c(=O)n(C2C[C@@H](O)[C@@H](CO)O2)cc1F (stereo partly specified)
measurement_kind: growth
result: 20.3% (inactive)

Measured growth, Cc1nnc2c3nnc(-c4ccc(Cl)cc4)n3c3ccccc3n12 : 89.1% (inactive)

====

System: HCT-116 colon
Test: NCI-60 one-dose screen, 48 h
Conditions: 10 µM
The panel holds about 83,000 compounds, 20% with a hit somewhere; the sample as a whole holds those more often. Activity calls are given as the source filed them. Rule for the calls: active = growth percent below 10; inactive = the rest.
Answer with one of the outcomes given here: active, inactive

Some solved entries appear below for comparison.
compound: COc1ccc(CCc2nc3cc(-c4c(C)noc4C)ccc3n2CCN2CCOCC2)cc1
target_system: HCT-116 colon
label: inactive
--
compound: O=c1oc2cc(OS(=O)(=O)C3CC3)ccc2c2c1CCCCCC2
target_system: HCT-116 colon
label: inactive
--
compound: CCOC(=O)[C@@H]1[C@H](c2ccccc2)[C@H]([N+](=O)[O-])[C@H](c2cn(-c3ccccc3)nc2C)N1Cc1ccccc1
target_system: HCT-116 colon
label: inactive
--
compound: Cc1ccc(S(=O)(=O)Oc2ccccc2-c2ccccc2)cc1
target_system: HCT-116 colon
label: inactive
--
compound: O=C/C=C/c1ccc([N+](=O)[O-])cc1Cl
target_system: HCT-116 colon
label: active

Okay, now this compound:
Assay outcome for CC(=O)Oc1c(C)c(C)c2c(c1C)CCC(C)(CC(=O)OCCCCCCCCCCC[P+](c1ccccc1)(c1ccccc1)c1ccccc1)O2 (stereo unspecified) : what was it? active

====

Recorded growth values for a group of molecules are listed next.
System: MDA-MB-435 melanoma
Assay: NCI-60 one-dose screen, 48 h (100 = growth as untreated, 0 = no growth, -100 = all killed)
Settings: 10 µM
Compounds without any hit were thinned out: in the full panel of roughly 83,000, 20% have a hit.
Return type: number; implicit unit %.

molecule: CCN(Cc1ccccc1)C1CCN(Cc2cc(Br)ccc2O)CC1
growth [%]: 52.1

Measured growth, COc1ccc(-c2[nH]ncc2/C=C/c2cc(C(F)(F)F)[nH]c(=O)n2)cc1 : 97.8

Measured growth, Cc1ccc(C)c(S(=O)(=O)NC2c3ccccc3Oc3ccccc32)c1 : 107

====

Test system: ACHN renal
Assay: NCI-60 one-dose screen, 48 h
Settings: 10 µM
About 83,000 compounds went through this panel and 20% of them were active in at least one assay; those are over-represented in the sample as a whole. The source made the active and inactive calls. Rule for the calls: active = growth percent below 10; inactive = the rest.
Answer with one of the outcomes given here: active, inactive

molecule: COc1cc(OC)cc(-c2ccc(-c3ccc(C(=N)N)cn3)o2)c1
label: active
//
molecule: CCCCCCCCCCCCCCCC(=O)N1CCN(C)CC1
label: inactive
//
molecule: COc1ccc2c(c1)/C(=C/c1cc(OC)c(OC)c(OC)c1)C(=O)N2C
label: inactive
//
molecule: CCCCCCCCCCCCCCCCn1cc[n+](C)c1
label: active
//
molecule: NC(=O)c1ccc(Br)o1
label: inactive
//
molecule: CCCCCCOc1ccc(/C=C/C(=O)c2ccc(B(O)O)cc2)cc1
label: inactive
//
molecule: CCC(OC(=O)CC(C)C)c1ccccc1 (stereo unspecified)
label: inactive
//
molecule: NCCNc1ccc2cc(-c3nc4ccccc4[nH]3)c(=O)oc2c1
label: inactive

Assay outcome for CCc1ccc(Nc2cc(C)nc3nc(C)nn23)cc1 : what was it? active

Assay outcome for COc1ccc(-c2nc(-c3ccccc3)c(-c3ccccc3)[nH]2)cc1OC1CCCC1 : what was it? inactive

====

System: UO-31 renal
Test: NCI-60 one-dose screen, 48 h (100 = growth as untreated, 0 = no growth, -100 = all killed)
Details: 10 µM
About 83,000 compounds went through this panel and 20% of them were active in at least one assay; those are over-represented in the sample as a whole.
Recorded growth values for a group of compounds are listed next.
Return type: number; implicit unit %.

A selection of reference data follows.
compound: CC(=O)OCC(COC(C)=O)(COC(C)=O)COC(C)=O
measurement_kind: growth
number: 84.7
--
compound: C=CCn1c(C)nc2cc(Nc3nc(Nc4ccc5nc(C)n(CC=C)c5c4)c4ccccc4n3)ccc21
measurement_kind: growth
number: -94.4
--
compound: Cc1cc2cc3c(=O)[nH]c(=O)cc-3n(CC(O)C(O)C(O)CO)c2cc1C (stereo not given)
measurement_kind: growth
number: 99.2
--
compound: COC(=O)c1c(C)nc(Nc2nc3ccccc3s2)nc1-c1ccc(Cl)cc1Cl
measurement_kind: growth
number: 81.2
--
compound: COc1cc(N=C2C(=O)N(Cc3ccccc3)c3ccccc32)cc(OC)c1OC
measurement_kind: growth
number: 77.3

Measured growth, COc1cc(-c2nc3cc(Cl)c(Cl)cc3[nH]2)ccc1OCC(=O)NN : 71.1

Measured growth, O=S(=O)(NC1c2ccccc2Oc2ccccc21)c1cc(Cl)ccc1Cl : 79.3

Measured growth, CCNC(=S)NN : 68.4

Measured growth, CC(=O)n1nc(C(=O)OC(C)(C)C)c2cc(F)c(F)cc21 : 92.6

Measured growth, CC1=CSC2=NC(c3ccc(Cl)c(Cl)c3)=CC(c3ccc(Cl)cc3)N12 (stereo not given) : 7.9

====

Tested on: BT-549 breast
Test: NCI-60 one-dose screen, 48 h (100 = growth as untreated, 0 = no growth, -100 = all killed)
Settings: 10 µM
About 83,000 compounds went through this panel and 20% of them were active in at least one assay; those are over-represented in the sample as a whole.
measurement_kind: growth (%)
Return type: number; implicit unit %.

molecule: Cc1ccc([P+](Cc2ccccc2)(c2ccccc2)c2ccccc2)cc1
unit_tag: %
growth: -4.96

molecule: O=C(OCC1OC(n2cc(C(F)(F)F)c(=O)[nH]c2=O)CC1OC(=O)c1ccc([N+](=O)[O-])cc1)c1ccc([N+](=O)[O-])cc1 (stereo unspecified)
unit_tag: %
growth: 60.1

molecule: COc1ccc(-c2nc(-c3ccccc3)c(-c3ccccc3)[nH]2)cc1OC1CCCC1
unit_tag: %
growth: 81.9

molecule: CC(C)=C1CCC(C)C/C1=N\N=C(N)N (stereo unspecified)
unit_tag: %
growth: 107

molecule: COC(=O)[C@]12CC[C@@H](C)[C@H](C)[C@@H]1C1=CC[C@@H]3[C@@]4(C)CC(=O)[C@H](O)[C@@]5(C)COC(=C45)C[C@@]3(C)[C@]1(C)CC2
unit_tag: %
growth: -61.7

Measured growth, COc1ccc(-c2nc3sc(-c4ccccc4)c(-c4ccccc4)n3c2/C=C/c2ccc(F)cc2)cc1 : 112

Measured growth, CCNC1(NC#N)CCCCC1 : 110

Measured growth, COc1ccc(-c2cc(/C=C/C(=O)c3ccc(N)cc3)[nH]n2)cc1OC : 55.4

Measured growth, COCCOC(=O)NC(=O)Nc1ccc(C(=O)c2ccc(Cl)cc2)cc1 : 37.8

Measured growth, O=C(O)CN1C(=O)C=CC1=O : 114

Measured growth, CCOC(=O)c1cc2c(n1Cc1cc(OC)cc(OC)c1)-c1oncc1CC2 : 39.5

====

Test system: ACHN renal
Test: NCI-60 one-dose screen, 48 h (100 = growth as untreated, 0 = no growth, -100 = all killed)
Conditions: 10 µM
About 83,000 compounds went through this panel and 20% of them were active in at least one assay; those are over-represented in the sample as a whole. Active and inactive are the calls of the source. How the source made its calls: active means growth percent below 10; inactive means the rest.
measurement_kind: growth

A selection of reference data follows.
compound: COc1ccc(NC(=O)CCn2cnc3c(cc(-c4ccccc4)n3-c3ccccc3)c2=O)cc1
measurement_kind: growth
result: 82% (inactive)
//
compound: Cc1nc(Nc2nc3ccccc3o2)nc(-c2cccc([N+](=O)[O-])c2)c1C(=O)Nc1ccc(F)c(Cl)c1
measurement_kind: growth
result: 12.9% (inactive)
//
compound: O=S(=O)(NC1c2ccccc2Oc2ccccc21)c1cc(Cl)ccc1Cl
measurement_kind: growth
result: 82.7% (inactive)
//
compound: COc1ccc(/C(CS(=O)(=O)c2ccccc2)=N\O)cc1
measurement_kind: growth
result: 109% (inactive)
//
compound: Cc1cnc(C=O)c2cccc([N+](=O)[O-])c12
measurement_kind: growth
result: 85.8% (inactive)
//
compound: COc1ccc(Cn2cc3c(c2-c2cc(OC)c(OC)c(OC)c2)CCc2cnoc2-3)cc1[N+](=O)[O-]
measurement_kind: growth
result: 60.4% (inactive)
//
compound: O=[N+]([O-])c1cc2ncccc2c2ncccc12
measurement_kind: growth
result: 65.3% (inactive)
//
compound: N#Cc1ncc(-c2cc(F)ccc2F)c(NC2CCCCCC2)n1
measurement_kind: growth
result: 88.8% (inactive)
//
compound: CC(=O)/C(=C\c1ccc(Cl)cc1)c1ccccc1
measurement_kind: growth
result: 29.6% (inactive)
//
compound: CN(C)c1ccc2c(c1)OC(N)=C(C#N)C2c1ccc2c(c1)CCCN2C (stereo not drawn)
measurement_kind: growth
result: 52.8% (inactive)

In the following, a different compound is considered.
Given the compound COc1cc(NS(C)(=O)=O)ccc1Nc1c2ccc(Cl)cc2nc2c(OC)cccc12 and test system ACHN renal, the measured growth is -46.4% (active)
